test-conditions: in isooctane, 306.77 K
assay-readout: solubility (mole fraction)

# smi, reported
measured = [
    ("Cc1ccc2cc(C)ccc2c1", 0.0487),
]

* * *

test-conditions: in isooctane, 315.41 K

# smi, solubility (mole fraction)
data = [
    ("Cc1ccc2cc(C)ccc2c1", 0.0725),
]

* * *

test-conditions: in n-propyl acetate, 307.41 K

# smi, solubility (mole fraction)
rows = [
    ("Cc1ccc2cc(C)ccc2c1", 0.103),
]

* * *

test-conditions: in n-propyl acetate, 300.85 K

# smi, solubility (mole fraction)
rows = [
    ("Cc1ccc2cc(C)ccc2c1", 0.0815),
]

* * *

test-conditions: in cyclohexane, 323.07 K
assay-readout: solubility (mole fraction)

# smi, reported
records = [
    ("Cc1ccc2cc(C)ccc2c1", 0.115),
]

* * *

test-conditions: in isooctane, 341.2 K
assay-readout: solubility (mole fraction)

# smi, reported
records = [
    ("Cc1ccc2cc(C)ccc2c1", 0.197),
]

* * *

test-conditions: in n-heptane, 339.42 K

# smi, solubility (mole fraction)
records = [
    ("Cc1ccc2cc(C)ccc2c1", 0.17),
]

* * *

test-conditions: in cyclohexane, 339.97 K
assay-readout: solubility (mole fraction)

# smi, reported
rows = [
    ("Cc1ccc2cc(C)ccc2c1", 0.253),
]

* * *

test-conditions: in n-propyl acetate, 320.65 K

# smi, solubility (mole fraction)
measured = [
    ("Cc1ccc2cc(C)ccc2c1", 0.159),
]

* * *

test-conditions: in isopropanol, 286.65 K
assay-readout: solubility (mole fraction)

# smi, reported
measured = [
    ("Cc1ccc2cc(C)ccc2c1", 0.0054),
]

* * *

test-conditions: in n-heptane, 324.79 K
assay-readout: solubility (mole fraction)

# smi, reported
rows = [
    ("Cc1ccc2cc(C)ccc2c1", 0.0979),
]

* * *

test-conditions: in ethyl acetate, 311.52 K

# smi, solubility (mole fraction)
measured = [
    ("Cc1ccc2cc(C)ccc2c1", 0.0957),
]

* * *

test-conditions: in isopropanol, 301.45 K

# smi, solubility (mole fraction)
records = [
    ("Cc1ccc2cc(C)ccc2c1", 0.0098),
]

* * *

test-conditions: in isopropanol, 294.55 K

# smi, solubility (mole fraction)
measured = [
    ("Cc1ccc2cc(C)ccc2c1", 0.0072),
]

* * *

test-conditions: in isooctane, 293.19 K
assay-readout: solubility (mole fraction)

# smi, reported
records = [
    ("Cc1ccc2cc(C)ccc2c1", 0.0294),
]

* * *

test-conditions: in isopropanol, 323.22 K
assay-readout: solubility (mole fraction)

# smi, assay-readout, reported
measured = [
    ("Cc1ccc2cc(C)ccc2c1", "solubility (mole fraction)", 0.023),
]

* * *

test-conditions: in n-propyl acetate, 293.5 K
assay-readout: solubility (mole fraction)

# smi, assay-readout, reported
rows = [
    ("Cc1ccc2cc(C)ccc2c1", "solubility (mole fraction)", 0.0638),
]

* * *

test-conditions: in ethyl acetate, 338.58 K
assay-readout: solubility (mole fraction)

# smi, assay-readout, reported
measured = [
    ("Cc1ccc2cc(C)ccc2c1", "solubility (mole fraction)", 0.256),
]

* * *

test-conditions: in ethyl acetate, 332.01 K
assay-readout: solubility (mole fraction)

# smi, reported
data = [
    ("Cc1ccc2cc(C)ccc2c1", 0.2),
]

* * *

test-conditions: in n-propyl acetate, 338.17 K

# smi, solubility (mole fraction)
rows = [
    ("Cc1ccc2cc(C)ccc2c1", 0.289),
]
